Assay: Antiproliferative activity against human K562 cells measured after 48 hrs by WST1 assay
Format: functional, cell-based
Conditions: K562, 48 h
measurementKind: IC50 (µM)
Numbers only, in µM.

Need IC50, item "Cc1nc(-c2ccccc2)ccc1C(=O)N/N=C1\C(=O)Nc2ccc(Br)cc21" 25

###

Assay: Antiproliferative activity against mouse L1210 cells
Format: functional, cell-based
measurementKind: pIC50
Answers are plain numbers, as −log10 of the molar value.

Need pIC50, item "Cc1ccc2c(c1)/C(=N/NC(=O)N/N=C1\C(=O)Nc3ccc(C)cc31)C(=O)N2" 4.80

###

Assay: Antiproliferative activity against human MCF7 cells measured after 48 hrs by SRB assay
Format: functional, cell-based
Settings: MCF7, 48 h
measurementKind: IC50

Need IC50, item "Nc1c(C(=O)N/N=C2\C(=O)Nc3ccc([N+](=O)[O-])cc32)cnn1C(=O)c1ccc(-c2nc3ccccc3s2)cc1" 10 nM

Hey, just so you know, these numbers are from ChEMBL document CHEMBL3865806.
